# pEC50 values compiled below
test_name: Liposomal membrane disruption assay (carboxyfluorescein LUVs)
Type: biochemical
reported_conditions: PC/PG/3 LUVs, 1st experiment; read-out: EC50 PC/PG/3 1st
pEC50: −log10 of the molar value. Where a SMILES comes first, the peptide text is derived from it. Bridges are numbered along the chain shown (N, C = ends). [ ]: non-standard residue; d: D form. The star is where a group is joined. Hexanoyl(3R-OH,5-Me) = CC(C)C[C@@H](O)CC(=O)*; dNMeF = CN[C@H](Cc1ccccc1)C(=O)O

# molecule, cmp, pEC50
records = [
    ("CC[C@H](C)[C@@H]1NC(=O)[C@@H](Cc2c[nH]c3ccccc23)NC(=O)[C@@H](CCC(N)=O)NC(=O)[C@H](CCC(=O)O)NC(=O)[C@@H](CCCNC(=N)N)NC(=O)[C@H](CC(C)C)NC(=O)[C@@H](Cc2ccccc2)N(C)C(=O)CNC(=O)[C@H](CO)NC(=O)[C@@H](CCCNC(=N)N)NC(=O)[C@@H](NC(=O)C[C@H](O)CC(C)C)[C@@H](C)OC(=O)[C@H]([C@@H](C)O)NC1=O [Peptide 1, Lysocin E] ({Hexanoyl(3R-OH,5-Me)}-T[dR]SG[dNMeF]L[dR]E[dQ][dW]IT; ester 1-C)", "=", 7.24),
    ("CC[C@H](C)[C@@H]1NC(=O)[C@@H](Cc2c[nH]c3ccccc23)NC(=O)[C@@H](Cc2ccc(O)cc2)NC(=O)[C@H](CCC(=O)O)NC(=O)[C@@H](CCCNC(=N)N)NC(=O)[C@H](CC(C)C)NC(=O)[C@@H](Cc2ccccc2)N(C)C(=O)CNC(=O)[C@H](CC(=O)O)NC(=O)[C@@H](CCCNC(=N)N)NC(=O)[C@@H](NC(=O)C[C@H](O)CC(C)C)[C@@H](C)OC(=O)[C@H]([C@@H](C)O)NC1=O [Peptide A17] ({Hexanoyl(3R-OH,5-Me)}-T[dR]DG[dNMeF]L[dR]E[dY][dW]IT; ester 1-C)", "<", 5.82),
]

###

Entries and their fluorescence intensity of 2H values follow.
test_name: On-bead menaquinone complexation assay (fluorescence of 2H)
Type: binding
reported_conditions: single library bead (hit beads >1000 a.u.); average of three readings
Description: Next, the feasibility of the on-bead complexation assay was assessed using bead-linked lysocin E 30 and MK-4 (2). […] We therefore developed a fluorescence-based method for quantifying 2 by reducing its naphthoquinone moiety to fluorescent hydroquinone 2H. […] The fluorescence intensity of 2H was evaluated to determine the quantity of 2 bound to one bead of 30. […]
Where a SMILES comes first, the peptide text is derived from it. Bridges are numbered along the chain shown (N, C = ends). [ ]: non-standard residue; d: D form. The star is where a group is joined. Hexanoyl(3R-OH,5-Me) = CC(C)C[C@@H](O)CC(=O)*; dNMeF = CN[C@H](Cc1ccccc1)C(=O)O; dOrn = NCCC[C@@H](N)C(=O)O

# molecule, endpoint_unit, fluorescence intensity of 2H
data = [
    ("CC[C@H](C)[C@@H]1NC(=O)[C@@H](Cc2c[nH]c3ccccc23)NC(=O)[C@@H](CCC(N)=O)NC(=O)[C@H](CCC(=O)O)NC(=O)[C@@H](CCCNC(=N)N)NC(=O)[C@H](CC(C)C)NC(=O)[C@@H](Cc2ccccc2)N(C)C(=O)CNC(=O)[C@H](CO)NC(=O)[C@@H](CCCNC(=N)N)NC(=O)[C@@H](NC(=O)C[C@H](O)CC(C)C)[C@@H](C)OC(=O)[C@H]([C@@H](C)O)NC1=O [Peptide 1, Lysocin E] ({Hexanoyl(3R-OH,5-Me)}-T[dR]SG[dNMeF]L[dR]E[dQ][dW]IT; ester 1-C)", "a.u.", 1369.78),
    ("CC[C@H](C)[C@@H]1NC(=O)[C@@H](Cc2c[nH]c3ccccc23)NC(=O)[C@@H](CCCN)NC(=O)[C@H](CCC(=O)O)NC(=O)[C@@H](CCCNC(=N)N)NC(=O)[C@H](CC(C)C)NC(=O)[C@@H](Cc2ccccc2)N(C)C(=O)CNC(=O)[C@H](CC(=O)O)NC(=O)[C@@H](CCCNC(=N)N)NC(=O)[C@@H](NC(=O)C[C@H](O)CC(C)C)[C@@H](C)OC(=O)[C@H]([C@@H](C)O)NC1=O [Peptide A16] ({Hexanoyl(3R-OH,5-Me)}-T[dR]DG[dNMeF]L[dR]E[dOrn][dW]IT; ester 1-C)", "a.u.", 1414.45),
]
